// each record: one item and its pIC50 for EP2 (Homo sapiens (Human))
Scale for pIC50: -log10 of concentration given in mol/L; no unit attached.

Sample answers from the record:
structure_as_smiles=CCOc1cc(-c2cc(NCCn3c(Cl)cc4c(OC)ccc(F)c43)ncn2)ccc1C(=O)O assay_value=8.22
structure_as_smiles=Cc1cc2c(Cl)cc(Cl)cc2n1CCNc1cc(-c2ccc(-c3csc(C(=O)O)n3)cc2)ncn1 assay_value=7.48

Now look at this entry.
Q: Provide value of pIC50 for this record tested with EP2 (Homo sapiens (Human)): Cc1cc2c(F)c(F)ccc2n1CCNc1cc(-c2ccc(C(=O)O)c(CC(C)C)c2)ncn1
Sequence (P43116 whole entry): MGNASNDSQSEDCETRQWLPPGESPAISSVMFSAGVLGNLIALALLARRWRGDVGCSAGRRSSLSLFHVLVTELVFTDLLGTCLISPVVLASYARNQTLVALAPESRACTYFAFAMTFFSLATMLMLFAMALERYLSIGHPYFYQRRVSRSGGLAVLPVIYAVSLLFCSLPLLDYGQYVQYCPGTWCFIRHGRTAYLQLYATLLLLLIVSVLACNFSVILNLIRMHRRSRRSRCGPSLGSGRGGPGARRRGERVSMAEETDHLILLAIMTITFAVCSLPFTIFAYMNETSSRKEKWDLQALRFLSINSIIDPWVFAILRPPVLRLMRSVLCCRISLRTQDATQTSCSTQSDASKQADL
Result: 7.70

###

Molecular target: PTRGER4 (EP4) (Homo sapiens (Human), UniProt P35408)
Sequence (P35408 whole entry, looked up): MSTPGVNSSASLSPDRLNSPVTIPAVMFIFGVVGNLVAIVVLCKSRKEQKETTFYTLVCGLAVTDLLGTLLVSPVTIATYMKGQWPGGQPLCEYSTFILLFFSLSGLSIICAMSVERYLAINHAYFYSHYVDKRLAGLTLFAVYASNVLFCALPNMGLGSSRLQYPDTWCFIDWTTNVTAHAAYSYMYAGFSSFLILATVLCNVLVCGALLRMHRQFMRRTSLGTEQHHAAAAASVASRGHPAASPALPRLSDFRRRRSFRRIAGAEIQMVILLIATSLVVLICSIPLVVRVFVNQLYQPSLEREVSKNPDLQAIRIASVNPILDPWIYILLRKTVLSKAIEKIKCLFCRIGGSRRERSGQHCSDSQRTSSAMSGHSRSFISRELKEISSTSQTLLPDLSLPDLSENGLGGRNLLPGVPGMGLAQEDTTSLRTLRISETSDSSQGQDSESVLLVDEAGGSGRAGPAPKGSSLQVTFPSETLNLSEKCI
Test: hEP4 b-arrestin assay (PathHunter HEK 293 PTGER4 b-arrestin cells)
Type: cell-based
Conditions: hEP4 b-arrestin assay (values without asterisk)
Threshold 7 nM: IC50 strictly smaller gives met, otherwise not met.

structure_as_smiles=CCOc1cc(-c2cc(NCCn3c(C)cc4c(OC)c(F)cc(Cl)c43)ncn2)sc1C(=O)O label="not met"
structure_as_smiles=CCOc1cc(-c2cc(NCCn3c(C)cc4c(OC)ccc(F)c43)ncn2)sc1NC(N)=O label="not met"
structure_as_smiles=CCOc1cc(-c2cc(NCCn3c(C#N)cc4c(OC)ccc(F)c43)ncn2)sc1C(=O)O label=met
structure_as_smiles=COc1ccc(F)c2c1cc(C)n2CCNc1cc(-c2cc(OC(C)C)c(CCC(=O)O)s2)ncn1 label="not met"
structure_as_smiles=COc1ccc(F)c2c1cc(C#N)n2CCNc1cc(-c2cc(OC(C)C)c(C(=O)O)s2)ncn1 label=met
structure_as_smiles=CCCOc1cc(-c2cc(NCCn3c(C#N)cc4c(OC)ccc(F)c43)ncn2)ccc1CC(=O)O label="not met"

Q: is_below(IC50, 7 nM) for CCOc1cc(-c2cc(NCCn3c(C#N)cc4c(OC)ccc(F)c43)ncn2)sc1CCC(=O)O ?
Result: met

Q: is_below(IC50, 7 nM) for CCOc1cc(-c2cc(NCCn3c(C)cc4c(OC)ccc(F)c43)ncn2)sc1NC(=O)CCO ?
Result: not met

Q: is_below(IC50, 7 nM) for COc1cc2[nH]ncc2cc1-c1cc(NCCn2c(C#N)cc3c(OC)ccc(F)c32)ncn1 ?
Result: not met

###

Molecular target: PTRGER4 (EP4) (Homo sapiens (Human))
Assay: hEP4 b-arrestin assay (PathHunter HEK 293 PTGER4 b-arrestin cells)
Assay type: cell-based
Conditions: hEP4 b-arrestin assay (values without asterisk)
Threshold 10 nM: IC50 strictly smaller gives MET, otherwise NOT MET.

structure_as_smiles=COc1ccc(F)c2c1cc(C)n2CCNc1cc(-c2cc(C(F)(F)F)c(-c3nn[nH]n3)s2)ncn1 label="NOT MET"
structure_as_smiles=CCOc1cc(-c2cc(NCCn3c(C#N)cc4c(Cl)cccc43)ncn2)ccc1NCC(=O)O label="NOT MET"
structure_as_smiles=COCCNC(=O)c1ccc(-c2cc(NCCn3c(C#N)cc4c(OC)ccc(F)c43)ncn2)cc1 label="NOT MET"

Q: is_below(IC50, 10 nM) for CCOc1cc(-c2cc(NCCn3c(C#N)cc4c(OC)ccc(F)c43)ncn2)sc1C(=O)N(C)C ?
Result: MET
